// data source = patent US20120276124A1

# Tested on: MDA-MB231
# Method summary: Inhibition of growth of MDA-MB-231 tumor cells by free drugs (14C thymidine uptake)
# Type: cell-based
# Assay conditions: Homo sapiens, MDA-MB231, 96 hrs, read-out: cellular inhibition proliferation (IC50 in nM) MDA-MB231
Recorded IC50 values for a group of compounds are listed next.
Assay readout: IC50 (nM)

INSERT INTO results (compound, subject_of_test, recorded_number) VALUES
  ('COC(=O)CCOCCOCCOCCOC/C=C/CSC(C)(C)CCC(=O)N(C)[C@@H](C)C(=O)O[C@H]1CC(=O)N(C)c2cc(cc(OC)c2Cl)C/C(C)=C/C=C/[C@@H](OC)[C@@]2(O)C[C@H](OC(=O)N2)[C@@H](C)[C@@H]2O[C@@]12C', 'MDA-MB231', 1.5),
  ('COC(=O)CCOCCOCCOCCOCCN(C)C(=O)CSC(C)(C)CCC(=O)N(C)[C@@H](C)C(=O)O[C@H]1CC(=O)N(C)c2cc(cc(OC)c2Cl)C/C(C)=C/C=C/[C@@H](OC)[C@@]2(O)C[C@H](OC(=O)N2)[C@@H](C)[C@@H]2O[C@@]12C', 'MDA-MB231', 28.3),
  ('COC(=O)CCOCCOCCOCCOCCNC(=O)CSC(C)(C)CCC(=O)N(C)[C@@H](C)C(=O)O[C@H]1CC(=O)N(C)c2cc(cc(OC)c2Cl)C/C(C)=C/C=C/[C@@H](OC)[C@@]2(O)C[C@H](OC(=O)N2)[C@@H](C)[C@@H]2O[C@@]12C', 'MDA-MB231', 15.3),
  ('COC(=O)CCOCCOCCOCCOCCNC(=O)CCN1C(=O)CC(SC(C)(C)CCC(=O)N(C)[C@@H](C)C(=O)O[C@H]2CC(=O)N(C)c3cc(cc(OC)c3Cl)C/C(C)=C/C=C/[C@@H](OC)[C@@]3(O)C[C@H](OC(=O)N3)[C@@H](C)[C@@H]3O[C@@]23C)C1=O (stereo partly shown)', 'MDA-MB231', 31.7);
